Assayed target: binding of SARS-CoV-2 Spike protein (S1 subunit) to ACE2 (UniProt P0DTC2+Q9BYF1)
Construct: a fusion protein of the SARS-CoV-2 spike protein S1 subunit and the horseradish peroxidase (HRP) enzyme
Sequence (Q9BYF1 18-740, one chain of several): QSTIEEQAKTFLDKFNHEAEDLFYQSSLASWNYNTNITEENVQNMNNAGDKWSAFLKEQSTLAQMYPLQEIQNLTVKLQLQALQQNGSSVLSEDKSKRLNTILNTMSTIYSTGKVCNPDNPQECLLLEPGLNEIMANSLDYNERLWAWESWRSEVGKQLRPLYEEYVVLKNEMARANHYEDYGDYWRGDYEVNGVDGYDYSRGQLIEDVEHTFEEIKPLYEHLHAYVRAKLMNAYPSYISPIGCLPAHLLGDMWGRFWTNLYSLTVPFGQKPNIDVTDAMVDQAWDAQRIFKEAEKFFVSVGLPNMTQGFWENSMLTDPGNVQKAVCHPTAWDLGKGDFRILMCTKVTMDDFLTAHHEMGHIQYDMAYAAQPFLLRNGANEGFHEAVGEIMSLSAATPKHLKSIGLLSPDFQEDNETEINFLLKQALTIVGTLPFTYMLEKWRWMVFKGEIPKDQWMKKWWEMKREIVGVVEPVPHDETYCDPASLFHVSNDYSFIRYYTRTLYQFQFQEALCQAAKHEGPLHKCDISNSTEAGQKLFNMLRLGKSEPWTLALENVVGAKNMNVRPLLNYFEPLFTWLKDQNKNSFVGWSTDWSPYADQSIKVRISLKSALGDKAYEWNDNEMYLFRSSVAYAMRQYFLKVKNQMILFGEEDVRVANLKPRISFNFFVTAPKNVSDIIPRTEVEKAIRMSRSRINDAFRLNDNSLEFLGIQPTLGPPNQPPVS
Assay explanation: biochemical
Readout name: IC50 (nM)

[[record]]
molecule = "C=CC1=C(C)c2cc3[nH]c(cc4nc(cc5[nH]c(cc1n2)c(C)c5CCC(=O)O)C(CCC(=O)O)=C4C)c(C)c3C=C"
readout_name = "IC50"
units_label = "nM"
reported = 1200

[[record]]
molecule = "C=Cc1c(C)c2cc3nc(c4c5[nH]c(cc6nc(cc1[nH]2)C(C)=C6CC)c(C)c5C(=O)[C@@H]4C(=O)OC)[C@@H](CCC(=O)O)[C@@H]3C [Pheophorbide A]"
readout_name = "IC50"
units_label = "nM"
reported = 500


---

Assayed target: binding of SARS-CoV-2 Spike protein (S1 subunit) to ACE2 (UniProt P0DTC2+Q9BYF1)
Construct: a fusion protein of the SARS-CoV-2 spike protein S1 subunit and the horseradish peroxidase (HRP) enzyme
Assay explanation: biochemical
Reported conditions: read-out: IC50
pIC50: −log10 of the molar value.
Readout name: pIC50

[[record]]
molecule_smiles = "C=Cc1c(C)c2cc3nc(c(CC(=O)O)c4[nH]c(cc5nc(cc1[nH]2)C(C)=C5CC)c(C)c4C(=O)O)[C@@H](CCC(=O)O)[C@@H]3C"
reported = 5.30


---

Assayed target: binding of SARS-CoV-2 Spike protein (S1 subunit) to ACE2 (UniProt P0DTC2+Q9BYF1)
Construct: a fusion protein of the SARS-CoV-2 spike protein S1 subunit and the horseradish peroxidase (HRP) enzyme
Assay explanation: biochemical
Readout name: Active (Y or N)

[[record]]
molecule = "C[n+]1ccc(-c2c3nc(c(-c4cc[n+](C)cc4)c4ccc([nH]4)c(-c4cc[n+](C)cc4)c4ccc([nH]4)c(-c4cc[n+](C)cc4)c4nc2C=C4)C=C3)cc1"
reported = "N"

[[record]]
molecule = "C=Cc1c(C)c2cc3nc(c4c5[nH]c(cc6nc(cc1[nH]2)C(C)=C6CC)c(C)c5C(=O)[C@@H]4C(=O)OC)[C@@H](CCC(=O)O)[C@@H]3C [Pheophorbide A]"
reported = "Y"

[[record]]
molecule = "C=Cc1c(C)c2cc3nc(c4c5[n-]c(cc6nc(cc1[n-]2)C(C)=C6CC)c(C)c5C(=O)[C@@H]4C(=O)OC)[C@@H](CCC(=O)OC/C=C(\\C)CCC[C@H](C)CCC[C@H](C)CCCC(C)C)[C@@H]3C.[Mg+2]"
reported = "N"

[[record]]
molecule = "C1=Cc2nc1cc1ccc([nH]1)c(-c1ccccc1)c1nc(cc3ccc([nH]3)c2-c2ccccc2)C=C1 [5,15-diphenyl-21H,23H-porphine]"
reported = "N"

[[record]]
molecule = "C1=Cc2cc3ccc(cc4nc(cc5ccc(cc1n2)[nH]5)C=C4)[nH]3"
reported = "N"

[[record]]
molecule = "C=Cc1c(C)c2cc3nc(c4c5[n-]c(cc6nc(cc1[n-]2)C(C=O)=C6CC)c(C)c5C(=O)[C@@H]4C(=O)OC)[C@@H](CCC(=O)OC/C=C(\\C)CCC[C@H](C)CCC[C@H](C)CCCC(C)C)[C@@H]3C.[Mg+2]"
reported = "N"


Where do these numbers come from? They come from patent US20240366564A1.
